- system under test: recombinant guanylate cyclase reporter cell line (Rattus norvegicus, UniProt P19686+P20595)
- Construct: expressed in transfected cells; host or cells: recombinant reporter cell line
- Sequence (P19686 1-690): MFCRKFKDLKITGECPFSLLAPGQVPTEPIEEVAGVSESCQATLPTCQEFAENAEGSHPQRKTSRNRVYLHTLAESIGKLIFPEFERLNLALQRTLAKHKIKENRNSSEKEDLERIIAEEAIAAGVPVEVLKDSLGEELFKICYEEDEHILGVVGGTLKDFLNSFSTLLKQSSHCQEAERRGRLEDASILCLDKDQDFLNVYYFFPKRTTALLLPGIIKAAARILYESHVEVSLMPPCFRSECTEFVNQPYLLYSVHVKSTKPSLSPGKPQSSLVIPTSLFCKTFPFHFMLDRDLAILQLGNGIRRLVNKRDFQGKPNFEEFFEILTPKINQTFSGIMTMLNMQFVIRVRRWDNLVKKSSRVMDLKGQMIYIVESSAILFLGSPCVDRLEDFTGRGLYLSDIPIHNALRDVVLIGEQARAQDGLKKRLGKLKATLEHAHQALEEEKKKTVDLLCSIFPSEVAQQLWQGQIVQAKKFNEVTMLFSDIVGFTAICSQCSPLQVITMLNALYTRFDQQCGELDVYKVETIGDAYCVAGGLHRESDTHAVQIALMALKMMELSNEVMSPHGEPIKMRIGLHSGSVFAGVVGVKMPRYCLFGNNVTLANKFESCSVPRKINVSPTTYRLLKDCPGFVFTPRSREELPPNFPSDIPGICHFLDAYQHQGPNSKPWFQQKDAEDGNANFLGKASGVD
- Sequence (P20595 1-619): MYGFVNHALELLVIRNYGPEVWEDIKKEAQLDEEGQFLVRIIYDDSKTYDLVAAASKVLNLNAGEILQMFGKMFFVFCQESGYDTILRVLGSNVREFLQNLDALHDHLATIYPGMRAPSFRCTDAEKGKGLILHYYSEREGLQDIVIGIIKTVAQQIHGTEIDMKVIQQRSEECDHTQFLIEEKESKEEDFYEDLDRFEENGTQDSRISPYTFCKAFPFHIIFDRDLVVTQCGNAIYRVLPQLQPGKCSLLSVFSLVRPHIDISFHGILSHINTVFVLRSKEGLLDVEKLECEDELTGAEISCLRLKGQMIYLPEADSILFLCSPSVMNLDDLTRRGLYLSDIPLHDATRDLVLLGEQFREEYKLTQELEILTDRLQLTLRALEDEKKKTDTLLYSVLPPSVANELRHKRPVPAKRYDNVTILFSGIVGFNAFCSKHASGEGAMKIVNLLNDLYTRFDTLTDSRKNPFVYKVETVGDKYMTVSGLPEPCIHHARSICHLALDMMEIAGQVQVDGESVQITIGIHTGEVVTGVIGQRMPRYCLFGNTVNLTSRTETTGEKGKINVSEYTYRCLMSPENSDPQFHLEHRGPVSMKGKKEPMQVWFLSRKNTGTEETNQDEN
- procedure summary: Effect on a recombinant guanylate cyclase reporter cell line
- Type: cell-based
- condition: MEC = minimum effective concentration; in some cases mean values for individual determinations
Counter-ions that a name gives are not always drawn.
Reported MEC values for a set of compounds
I only need the number, in µM, no unit after it.

>>> print(df.to_string())
                                   compound  value_reported
0  Cc1cc(OCc2c(F)cccc2F)c2nc(C)c(-c3cncc(C(=O)NC4CC4)c3)n2c1 [Example 78, trifluoroacetate]             0.1
1  CSc1cccc(-c2c(C)nc3c(OCc4c(F)cccc4F)cccn23)c1             3.0
2  Cc1cc(OCc2c(F)cccc2F)c2nc(C)c(-c3cnn(CCC(=O)O)c3)n2c1           0.065

Request: Find the recorded MEC belonging to "Cc1nc2c(OCc3c(F)cccc3F)cccn2c1-c1cnn(Cc2ccccc2)c1" and report it.
Result: 0.065

Request: Find the recorded MEC belonging to "Cc1cc(-c2c(C)nc3c(OCc4c(F)cccc4F)cccn23)cnc1Cl" and report it.
Result: 0.1

Request: Find the recorded MEC belonging to Cc1cc(OCc2c(F)cccc2F)c2nc(C)c(-c3cnn(C(C)C(=O)O)c3)n2c1 (stereo not shown) and report it.
Result: 0.3

Request: Find the recorded MEC belonging to "Cc1nc2c(OCc3c(F)cccc3F)cccn2c1-c1csc2ccccc12" and report it.
Result: 3.0
